Read-out: Cyclin D2 (CCND2), CCND2 (gene 894)
Assay: LTEA_HepaRG_CCND2: Life Technologies and Expression Analysis (LTEA) Assay for Cyclin D2 (CCND2) using HepaRG (AID 2283449);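 note: CCND2 transcript measured by TaqMan qRT-PCR and normalised to three housekeeping genes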
Conditions: mRNA level, 48 h; actives raise or lower the signal
Activity calls are given as the source filed them. Rule for the calls: active = hit-call score of the fitted dose curve at least 0.9, where 1 is the maximum; inactive = score below 0.9.
experimentalEndpoint: outcome

Example entries begin here.
Input line: Respond only with outcome recorded for CCC(C)Nc1c([N+](=O)[O-])cc(C(C)(C)C)cc1[N+](=O)[O-] (configuration not stated)
Output line: inactive

Input line: Give recorded outcome. CCCN(CCOc1c(Cl)cc(Cl)cc1Cl)C(=O)n1ccnc1
Output line: inactive

Input line: Give reported outcome value for CC(C)N(C(=O)COc1nnc(C(F)(F)F)s1)c1ccc(F)cc1
Output line: inactive

Input line: Identify measured outcome corresponding to Oc1cc(Cl)ccc1Oc1ccc(Cl)cc1Cl
Output line: inactive

Input line: In one line, give reported outcome of the entry O=C(O)CCCOc1ccc(Cl)cc1Cl .
Output line: inactive

Continuing:
Input line: Using known records, supply outcome for CCOC1Oc2ccc(OS(C)(=O)=O)cc2C1(C)C (configuration not stated)
Output line: inactive

Input line: For the compound O=S(=O)(O)C(F)(F)C(F)(F)C(F)(F)C(F)(F)C(F)(F)C(F)(F)C(F)(F)C(F)(F)F , give its measured outcome value.
Output line: inactive

Input line: Supply recorded outcome for CC1(C)C(C=C(Cl)Cl)C1C(=O)OC(C#N)c1ccc(F)c(Oc2ccccc2)c1 (configuration not stated) here.
Output line: inactive

---

Assay: CCTE_Mundy_HCI_iCellGluta_NOG_NeuriteCount: CCTE's Neurite Outgrowth Assay in iCellGluta cells for Neurite Count, Mundy Lab (AID 2284342);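 note: chemical exposure about 48 hours starting 2 hours after plating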
Records with an inconclusive call do not appear. Activity calls are given as the source filed them. The calls were made as follows: active = hit-call score of the fitted dose curve at least 0.9, where 1 is the maximum; inconclusive = response in the unintended direction; inactive = score below 0.9.
experimentalEndpoint: AC50

Use the examples below as a reference point.
Input line: Entry O=S1OCC2C(CO1)C1(Cl)C(Cl)=C(Cl)C2(Cl)C1(Cl)Cl (stereo unspecified) needs its AC50 filled in; supply it.
Output line: 23 µM (active)

Input line: Using the record for CC(C)N(C(=O)COc1nnc(C(F)(F)F)s1)c1ccc(F)cc1 , state its measured AC50.
Output line: inactive

Input line: Supply reported AC50 belonging to this molecule: COP(=O)(OC)OC=C(Cl)Cl
Output line: 49 µM (active)

Input line: Provide AC50 value for the following molecule: CCC(C)(C)C(=O)OC1=C(c2ccc(Cl)cc2Cl)C(=O)OC12CCCCC2
Output line: inactive

Input line: Please report the measured AC50 for CC1(c2ccc(Oc3ccccc3)cc2)OC(=O)N(Nc2ccccc2)C1=O (stereo unspecified)
Output line: inactive

Then there is this molecule:
Input line: Output measured AC50 for this item: O=[N+]([O-])/N=C1\NCCN1Cc1ccc(Cl)nc1
Output line: inactive

---

Assay: APR_HepG2_p53Act_24hr: Apredica 24-hour HepG2 Assay for p53 Activation (AID 2282913);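 note: p53 protein immunofluorescence averaged per cell in HepG2 with Hoechst nuclei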
Settings: high-content imaging, actives raise or lower the signal
Protocol: APR_HepG2_24hr is a cell-based, multiplexed-readout assay that uses HepG2, a human liver cell line, with measurements taken at 24 hours after chemical dosing in a 384-well plate.APR_HepG2_p53Act_24hr is one of 10 assay component(s) measured or calculated from the APR_HepG2_24hr assay. […] This assay endpoint, APR_HepG2_p53Act_24hr, was analyzed with bidirectional fitting relative to DMSO as the negative control and baseline of activity. […]
Calls of active or inactive are those of the source. The calls were made as follows: active = hit-call score of the fitted dose curve at least 0.9, where 1 is the maximum; inactive = score below 0.9.
Entry note: the call must match one of t (active), f (inactive)

Input line: Test call for this compound, please: CCS(=O)(=O)c1cccnc1S(=O)(=O)NC(=O)Nc1nc(OC)cc(OC)n1
Output line: f

Input line: Hi, sorry to bother you, what did the test record for Cc1cc(C)nc(NC(=O)NS(=O)(=O)c2ccccc2C(=O)OC2COC2)n1 ?
Output line: f

Input line: Test call for this compound, please: CCc1ccc(C(=O)NN(C(=O)c2cc(C)cc(C)c2)C(C)(C)C)cc1
Output line: f

Input line: Any idea what this test logged for CCOCN(C(=O)CCl)c1c(C)cccc1CC ?
Output line: t

Input line: Give the logged outcome of this assay for the following compound: COc1nn(CSP(=S)(OC)OC)c(=O)s1
Output line: f

Input line: Lab log entry: C[C@H]1[C@H](c2ccc(Cl)cc2)SC(=O)N1C(=O)NC1CCCCC1 — outcome as called in the assay?
Output line: f

Input line: Hello, I am checking results. What call was entered for CC[C@H](C)[C@H]1O[C@]2(C=C[C@@H]1C)C[C@@H]1C[C@@H](C/C=C(\C)[C@@H](O[C@H]3C[C@H](OC)[C@@H](O[C@H]4C[C@H](OC)[C@@H](O)[C@H](C)O4)[C@H](C)O3)[C@@H](C)/C=C/C=C3\CO[C@@H]4[C@H](O)C(C)=C[C@@H](C(=O)O1)[C@]34O)O2 (tested in a mixture with another compound) ?
Output line: f

Input line: I'd appreciate the recorded outcome for CCCN(CCOc1c(Cl)cc(Cl)cc1Cl)C(=O)n1ccnc1 from this test.
Output line: f

Input line: Outcome? COC(=O)c1ccccc1CS(=O)(=O)NC(=O)Nc1nc(OC)cc(OC)n1
Output line: f
